These measurements were taken from patent US20220324970A1.

# Study target: T1, human pIgR extracellular domain (ECD) (human, UniProt P01833 19-638)
# T1 construct: also called hpIgR ECD
# T1 sequence (P01833 other isoform, or with tags, fused parts or gaps): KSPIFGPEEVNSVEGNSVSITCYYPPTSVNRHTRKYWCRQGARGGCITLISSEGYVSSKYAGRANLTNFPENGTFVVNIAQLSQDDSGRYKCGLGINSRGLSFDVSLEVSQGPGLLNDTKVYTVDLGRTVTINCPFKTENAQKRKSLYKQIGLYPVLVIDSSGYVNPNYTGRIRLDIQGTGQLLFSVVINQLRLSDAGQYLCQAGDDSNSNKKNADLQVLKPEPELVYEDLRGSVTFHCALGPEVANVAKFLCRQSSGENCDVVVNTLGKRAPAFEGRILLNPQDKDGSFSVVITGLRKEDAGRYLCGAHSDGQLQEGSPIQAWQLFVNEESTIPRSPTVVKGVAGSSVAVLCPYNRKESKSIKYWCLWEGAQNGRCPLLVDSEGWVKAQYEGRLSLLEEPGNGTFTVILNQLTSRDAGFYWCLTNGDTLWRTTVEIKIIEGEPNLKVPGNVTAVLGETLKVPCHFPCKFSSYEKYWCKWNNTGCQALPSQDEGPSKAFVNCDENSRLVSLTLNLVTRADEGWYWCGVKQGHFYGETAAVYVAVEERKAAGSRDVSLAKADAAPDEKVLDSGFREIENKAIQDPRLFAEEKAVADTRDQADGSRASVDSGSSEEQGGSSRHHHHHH
# Experiment: BLI (Octet RED384), 1:1 fit, 25 C, PBS; column kdis
Attribute: koff
Only the number, expressed in s⁻¹, is required.

Solved entries (count: 2):
INSERT INTO assay_data (binder, scale_unit, observed) VALUES
  ('VHH9-linker-mono-Fc protein (Fc fusion, made in CHO cells; also called VHH9-mono-Fc; hpIgR_221) QVQLVESGGGLVQAGGSLRLSCAVSGRTFSTYRMGWFRQAPGKERSFVAAISWSGGSTTYADPVKGRFTISRDNAKNTVYLRMNSLKPEDTAVYYCNDQRGYWGQGTLVTVSSEPKTPKPQPQPQLQPQPNPTTESKSPKSPAPELLGGPSVFLFPPKPKDTLMISRTPEVTCVVVDVSHEDPEVKFNWYVDGVEVHNAKTKPREEQYNSTYRVVSVLTVLHQDWLNGKEYKCKVSNKALPAPIEKTISKAKGQPREPQVYTKPPSREEMTKNQVSLSCLVKGFYPSDIAVEWESNGQPENNYKTTVPVLDSDGSFRLASYLTVDKSRWQQGNVFSCSVMHEALHNHYTQKSLSLSPGK', 's⁻¹', 0.00156),
  ('VHH10-linker-mono-Fc protein (Fc fusion, made in CHO cells; also called VHH10-mono-Fc; hpIgR_225) EVQVVESGGGLVQAGGSLRLSCAASGFTFTRYAMGWFRQAPGKERSFVAAISWSGSSAGYGDSVKGRFTISRDNAKNTLYLQMNSLKPEDTAVYYCAADPFNQGYWGQGTQVTVSSEPKTPKPQPQPQLQPQPNPTTESKSPKSPAPELLGGPSVFLFPPKPKDTLMISRTPEVTCVVVDVSHEDPEVKFNWYVDGVEVHNAKTKPREEQYNSTYRVVSVLTVLHQDWLNGKEYKCKVSNKALPAPIEKTISKAKGQPREPQVYTKPPSREEMTKNQVSLSCLVKGFYPSDIAVEWESNGQPENNYKTTVPVLDSDGSFRLASYLTVDKSRWQQGNVFSCSVMHEALHNHYTQKSLSLSPGK', 's⁻¹', 0.00513);

Give its koff value. Item: VHH5-linker-mono-Fc protein (Fc fusion, made in CHO cells; also called VHH5-mono-Fc; hpIgR_175) QVQLVESGGGLVQAGGSLRLSCAASGRTFSSYAMGWFRQAPGKEREFVAAITWNGGTTYYADSVKGRFTISRDNAKNTVYLQMNSLKPEDTAVYYCAADPFNQGYWGQGTQVTVSSEPKTPKPQPQPQLQPQPNPTTESKSPKSPAPELLGGPSVFLFPPKPKDTLMISRTPEVTCVVVDVSHEDPEVKFNWYVDGVEVHNAKTKPREEQYNSTYRVVSVLTVLHQDWLNGKEYKCKVSNKALPAPIEKTISKAKGQPREPQVYTKPPSREEMTKNQVSLSCLVKGFYPSDIAVEWESNGQPENNYKTTVPVLDSDGSFRLASYLTVDKSRWQQGNVFSCSVMHEALHNHYTQKSLSLSPGK 0.00145

How about this binder: VHH12-linker-mono-Fc protein (Fc fusion, made in CHO cells; also called VHH12-mono-Fc; hpIgR_266) QVQLVETGGGLVQAGDSLRLSCAASGRTLSFNTYAMGWFRQAPGKEREFVASITWNGGSTSYADSVKGRFTITRDNAKNTATLRMNSLQPDDTAVYYCAAARYYVSGTYFPANYWGQGTQVTVSSEPKTPKPQPQPQLQPQPNPTTESKSPKSPAPELLGGPSVFLFPPKPKDTLMISRTPEVTCVVVDVSHEDPEVKFNWYVDGVEVHNAKTKPREEQYNSTYRVVSVLTVLHQDWLNGKEYKCKVSNKALPAPIEKTISKAKGQPREPQVYTKPPSREEMTKNQVSLSCLVKGFYPSDIAVEWESNGQPENNYKTTVPVLDSDGSFRLASYLTVDKSRWQQGNVFSCSVMHEALHNHYTQKSLSLSPGK 0.00166

How about this binder: VHH11-linker-mono-Fc protein (Fc fusion, made in CHO cells; also called VHH11-mono-Fc; hpIgR_250) EVQVVESGGGLVQAGGSLRLSCAASGRTFTTYRMGWFRQAPGKEREFVAAIRWSGGRTLYADSVKGRFTISRDNAKNTAYLQMNNLRPEDTAVYYCAADLAEYSGTYSSPADSPAGYDYWGQGTQVTVSSEPKTPKPQPQPQLQPQPNPTTESKSPKSPAPELLGGPSVFLFPPKPKDTLMISRTPEVTCVVVDVSHEDPEVKFNWYVDGVEVHNAKTKPREEQYNSTYRVVSVLTVLHQDWLNGKEYKCKVSNKALPAPIEKTISKAKGQPREPQVYTKPPSREEMTKNQVSLSCLVKGFYPSDIAVEWESNGQPENNYKTTVPVLDSDGSFRLASYLTVDKSRWQQGNVFSCSVMHEALHNHYTQKSLSLSPGK 0.00314
